Reported values of TGI for individual entries
system: HOP-92 NSCLC; assay: NCI tumour cell line growth inhibition, 48 h
recordedEndpoint: TGI

CC/C=C\C/C=C\C[C@H](O)C/C=C1/C(=O)C=C[C@H]1C/C=C\CCC(=O)OC > 8.25 µM
O=C(/C=C/c1ccc(-c2ccccc2)cc1)NCc1ccc(C(=O)NCCc2c[nH]c3ccccc23)cc1 > 100 µM
O=c1[nH]c(=O)n(COCc2ccccc2)c2ccc(Br)cc12 > 100 µM

* * *

tested on: NCI-H522 lung; experiment: NCI tumour cell line growth inhibition, 48 h
recordedEndpoint: TGI (µM)

compound	experimentalTarget	testValue
O=C(c1ccccc1)c1c(C(F)(F)F)n([O-])c2cc(Cl)c(Cl)cc2[n+]1=O	NCI-H522 lung	1.08
CC1CCc2c(sc3ncnc(N/N=C/c4ccc(Cl)c(Cl)c4)c23)C1 (configuration not stated)	NCI-H522 lung	21
CSc1ccc(-c2cc(-c3ccc(NC(=O)CCCN4CCCC4)cc3)nc(-c3ccc(NC(=O)CCCN4CCCC4)cc3)c2)cc1	NCI-H522 lung	3.59
Fc1ccc(C2CC(c3cccc(Nc4ccncc4)c3)=NN2c2cc(Cl)cc(Cl)c2)cc1 (configuration not stated)	NCI-H522 lung	3.9
Nc1ccc(N=Nc2ccccc2)c(N)n1	NCI-H522 lung	86.2
COC(=O)c1ccc(CCc2cc(O)ccc2O)cc1	NCI-H522 lung	2.16
CN(C)CCOC(=O)c1ccc(N)cc1	NCI-H522 lung	68.1
COc1ccc(Nc2ccnc(NCCNc3ccnc4cc(Cl)ccc34)n2)cc1	NCI-H522 lung	7.8
NS(=O)(=O)c1ccc(Nc2c3ccccc3nc3c(C(=O)NCCCN(CCO)CCO)cccc23)cc1	NCI-H522 lung	44.1
CN(C)c1ccc(/C=C/C(=O)C(C)(C)C)cc1Br	NCI-H522 lung	31.9
COC(=O)Nc1nc2ccc(Oc3ccc(NC(=O)Nc4cccc(Br)c4)cc3)cc2[nH]1	NCI-H522 lung	2.7
COC(=O)/C=C\C(C#N)(C#N)N=Cc1ccc(C)s1	NCI-H522 lung	2.01
N#CC(C#N)=Cc1c(O)ccc2ccccc12	NCI-H522 lung	29.2
